For each entry below, report its shrunken log2 fold change value.
# System: Escherichia coli TOP10;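 further: peptides expressed intracellularly from a pBAD plasmid library in pooled LB shake-flask culture, induced with 0.3% L-arabinose, DNA abundance read by NGS, three biological replicates, DESeq2 with apeglm shrinkage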
# assay protocol: shrunken log2 fold change of peptide-encoding DNA abundance (4.5 h post-induction vs induction); higher = less antimicrobial activity (less host growth inhibition)
# condition details: time post-induction: 4.5 h; library: site-saturation at positions 5, 18, 19, 20
Lab note: jot down the number only; don't add units.

Query: # query: shrunken log2 fold change of entry "RRIRRRPPRLPRPRPRPKNPPRP"
Response: 0.124

Query: # shrunken log2 fold change lookup, item "RRIRFRPPRLPRPRPRPFWTPRP"
Response: -0.257

Query: // returns reported shrunken log2 fold change for input "RRIRWRPPRLPRPRPRPHDWPRP"
Response: 0.15

Query: Which shrunken log2 fold change is listed for "RRIRQRPPRLPRPRPRPWETPRP" ?
Response: -0.00136

Query: Query (sequence): "RRIRERPPRLPRPRPRPEKFPRP" ; field requested: shrunken log2 fold change
Response: -0.287

Query: Could you tell me which shrunken log2 fold change is on file for "RRIRLRPPRLPRPRPRPTPPPRP" ?
Response: 0.648

Query: Look up shrunken log2 fold change: "RRIRERPPRLPRPRPRPCLDPRP"
Response: -0.0689
